- Tested on: UO-31
- assayExplanation: NCI tumour cell line growth inhibition, 48 h
Active and inactive are the calls of the source. Cut-off read from the data, not from the text of the source: active = GI50 up to about 1.1 µM and inactive = higher. Residues, ends and D or L forms follow the SMILES beside them. Groups on a side chain read outwards from the residue. *: point of attachment. Cbz = O=C(OCc1ccccc1)*; Boc = CC(C)(C)OC(=O)*
Outcome codes: T for active, F for inactive

compound: S=C1NC2=C(COC/C2=C\c2ccccc2Cl)C(c2ccccc2Cl)N1 (configuration not stated)
label: F
//
compound: COc1cc(C2=NNC(=O)c3ccccc3N2c2nc(-c3cccs3)nc3ccc(Br)cc23)cc(OC)c1OC
label: F
//
compound: C#CC(O)/C=C/CCCCCCC#CC/C=C\CC#CCCCCCC/C=C/C(O)C#C (configuration not stated)
label: T
//
compound: O=C(O)c1ccccc1CC1Cc2ccccc2C1=O (configuration not stated)
label: F
//
compound: CCOC(=O)CNC(=O)C(CCC(=O)N(C)O)NC(=O)CCC(N)C(=O)O (configuration not stated)
label: F
//
compound: O=C1CSC(c2ccccc2O)N1c1ccc(Oc2ccc(Cl)cc2)c(Cl)c1 (configuration not stated)
label: F
//
compound: CCCCOC(=O)N[C@H]1CCc2cc(OC)c(OC)c(OC)c2-c2ccc(SC)c(=O)cc21
label: T
//
compound: COc1cc(/C=N/n2c(-c3ccccc3)nn(C(C)=O)c2=O)cc(OC)c1OC
label: F
//
compound: Cc1ccc(NC(c2ccccc2)P(=O)(c2ccccc2)c2ccccc2)cc1 (configuration not stated)
label: F
//
compound: Cc1nc(C)c(C(=O)Nc2cccc3c2C(=O)NC3=O)cc1C(=O)Nc1cccc2c1C(=O)NC2=O
label: F
//
compound: CCOc1ccc2c(c1)C(/C(C(Cl)=C(Cl)Cl)=[N+](/[O-])OC(=O)c1ccccc1)=N2
label: F
//
compound: CC(C)CC(NC(=O)OCc1ccccc1)C(=O)NCCCCC(NC(=O)C(CCCCNC(=O)C(CC(C)C)NC(=O)OCc1ccccc1)NC(=O)C(CCCCNC(=O)C(CC(C)C)NC(=O)OCc1ccccc1)NC(=O)C(CCCCNC(=O)C(CC(C)C)NC(=O)OCc1ccccc1)NC(=O)OC(C)(C)C)C(=O)O (configuration not stated) (Boc-K([Leu-Cbz])K([Leu-Cbz])K([Leu-Cbz])K([Leu-Cbz])-OH; configuration not given here)
label: F
//
compound: CCCCOC(=O)C(=O)C(CCC(=O)c1ccc(C)cc1)C(=O)C=C(C)C (configuration not stated)
label: F
//
compound: O=C(Nc1c(O)[nH]c(=S)[nH]c1=O)c1ccccc1F
label: F
//
compound: CCOc1ccc(NC(=O)CCc2nnc(SC)o2)cc1
label: F
//
compound: CC12C=C[C@]3(CC[C@@H]4[C@@](C)(CO)CCC[C@]4(C)C3CC1)C2 (some centres not stated)
label: F
//
compound: C[C@]12CCC(=O)C=C1CC[C@@H]1[C@@H]2[C@@H](O)C[C@@]2(C)[C@H]1CC[C@]2(O)C(=O)CO [HYDROCORTISONE]
label: F
//
compound: CN(COC(=O)c1ccccc1)c1nc(N(C)COC(=O)c2ccccc2)nc(N(C)COC(=O)c2ccccc2)n1
label: F
//
compound: CCc1nn(CN2CCN(C)CC2)c(=S)n1/N=C\c1ccc(-c2ccc([N+](=O)[O-])cc2)o1
label: F
//
compound: CN1CCc2c3n(c4cc(Br)ccc24)[C@H](O)CCCC31 (some centres not stated)
label: F
//
compound: COc1nc(N)nc2nc[nH]c12
label: F
//
compound: COc1ccc2c(c1)N=C1CSC(c3ccccc3Cl)N1C2 (configuration not stated)
label: T
//
compound: O=C1OCCC[C@H]2O[C@@H](COCc3ccccc3)C[C@@H]12
label: F
//
compound: COC1OC(C)C(OCc2ccccc2)C(OS(=O)(=O)c2ccc(C)cc2)C1OS(=O)(=O)c1ccc(C)cc1 (configuration not stated)
label: F
//
compound: C/C(=N/NC(=O)C(N)=O)C(CC(C(=O)Nc1ccccc1C)/C(C)=N\NC(=O)C(N)=O)C(=O)Nc1ccccc1C (configuration not stated)
label: F
//
compound: C=C(CS(=O)(=O)c1ccccc1)C(=O)OCC
label: F
//
compound: Cc1cc(C)n(-c2nc3ccccc3c(=O)[nH]2)n1
label: F
//
compound: Cc1ccc(-c2nnc(CCCCCCCCc3nnc(-c4ccc(C)cc4O)n3N)n2N)c(O)c1
label: F
//
compound: COc1ccc(NC(=S)N/N=C(\C)c2nc3cccnc3[nH]2)cc1
label: F
//
compound: Cc1nc2cccc([N+](=O)[O-])c2c(NCCCN(C)C)c1C
label: F
//
compound: CCOC(=O)c1nc2cc(C(F)(F)F)ccc2nc1Oc1ccc(F)cc1
label: F
//
compound: CCSC1=CC(Cc2ccc(OC)cc2)N(C(=O)OC)C1 (configuration not stated)
label: F
//
compound: CCOC(=O)[C@@H]1C[C@@H]1c1ccc(O)c(O)c1
label: F
//
compound: Cc1ccc(NC(S)=Nc2c(C)n(C)n(-c3ccccc3)c2=O)cc1
label: F
//
compound: CCOC(=O)C1=C(C)NC(=O)NC1c1ccc(N(CCCl)CCCl)cc1Cl (configuration not stated)
label: F
//
compound: Nc1ccc(-c2ccc(Nc3cc(S(=O)(=O)O)c(N)c4c3C(=O)c3ccccc3C4=O)cc2)c(S(=O)(=O)O)c1
label: F
//
compound: O=C1CC2CCCC23CC2(CCN13)OCCO2 (configuration not stated)
label: F

====

- Test system: HL-60
- assayExplanation: NCI tumour cell line growth inhibition, 48 h
Calls of active or inactive are those of the source. No stated cut-off is given here; in the data, active = GI50 up to about 1.1 µM and inactive = higher.
Outcome codes: yes = active, no = inactive

molecule: Cc1cc(-c2ccccc2)cc2[n+]1CC=C2.[O-][Cl+3]([O-])([O-])[O-]
label: no
--
molecule: CCOc1ccc2c(c1)C(/C(C(Cl)=C(Cl)Cl)=[N+](/[O-])OC(=O)c1ccccc1)=N2
label: no
--
molecule: O=S(=O)(O)c1ccc2c(/N=N/c3c(O)ccc4ccccc34)cccc2c1
label: no
--
molecule: C1CCC2(CC1)O[C@@H]1[C@@H](O2)[C@@H](O[C@H]2O[C@@H]3COC4(CCCCC4)O[C@H]3[C@@H]3OC4(CCCCC4)O[C@@H]23)O[C@@H]2COC3(CCCCC3)O[C@@H]12
label: no
--
molecule: S=c1sc2c(S)nc(S)nc2n1-c1ccccc1
label: no
--
molecule: c1ccc(CSP234N5CCN2CCN3CCN4CC5)c(CSP234N5CCN2CCN3CCN4CC5)c1
label: no
--
molecule: COC(=O)c1cccc(C(=O)OC)c1
label: no
--
molecule: C=CCNC1=C2C[C@@H](C)C[C@H](OC)[C@H](O)[C@@H](C)/C=C(\C)[C@H](OC(N)=O)[C@@H](OC)/C=C\C=C(/C)C(=O)NC(=CC1=O)C2=O [TANESPIMYCIN]
label: yes
--
molecule: O=c1[nH]c(=O)n(C2CC(O)C(CO)O2)cc1OC/C=C/Cc1ccccc1 (stereo not drawn)
label: no
--
molecule: CC(=O)OCC1OC(n2cc(I)c(=O)[nH]c2=O)C(OC(C)=O)C(OC(C)=O)C1OC(C)=O (stereo not drawn)
label: no
--
molecule: CCOC(=O)c1c(C)n(CCN2CCN(C)CC2)c2ccc(OC)cc12
label: no
--
molecule: COC(=O)[C@@H](C)[C@H]1CC[C@@](C)(CCC2=C(C)CC3C=C(C)CCC3C2(C)C)OO1 (stereo partly drawn)
label: yes
--
molecule: Cc1ccc([N+](=O)[O-])cc1/N=N/C(=O)NNc1cc([N+](=O)[O-])ccc1C
label: no
--
molecule: CCCCCCCC(=O)OC[n+]1ccc(-c2c(COC(=O)NC(C)C)c(COC(=O)NC(C)C)c3n2CCC3)cc1
label: no
--
molecule: Cn1c2ccccc2n2c3ncccc3c(=O)c(C#N)c12
label: no
--
molecule: O=C(/C=C\c1ccsc1)c1ccccc1
label: yes
--
molecule: C=C(C)[C@H]1Cc2c(ccc3c2O[C@@H]2COc4cc(OC)c(OC)cc4[C@@H]2C3=O)O1 [ROTENONE]
label: yes
--
molecule: CN(C)CCSc1nccc(-c2ccc(-c3ccnc(SCCN(C)C)n3)s2)n1
label: no
--
molecule: CCOC(=O)C1=C(C)NC(=O)NC1c1ccc(N(CCCl)CCCl)cc1Cl (stereo not drawn)
label: no
--
molecule: Cc1ccc(/N=N/C(=N/NC(=O)c2ccccc2)c2ccc(N(CCC#N)CCC#N)cc2C)cc1
label: no
--
molecule: COC(=O)C1CCC(=O)N1CN(C(C)=O)c1cc(OC)ccc1OC (stereo not drawn)
label: no
--
molecule: CCOC(=O)NC(Nc1ccc(S(=O)(=O)Nc2ncccn2)cc1)(C(=O)OCC)C(F)(F)F (stereo not drawn)
label: no
--
molecule: CNC(=S)NNc1ncnc2c1c(-c1ccc(Cl)cc1)cn2-c1ccc(C)cc1
label: no
--
molecule: N#Cc1sc2c(c1OC(=O)c1ccc(Cl)cc1Cl)c(=O)n(-c1ccccc1)c(=S)n2-c1ccccc1
label: no
--
molecule: C=CCCC1CCCCNC1=S (stereo not drawn)
label: no
--
molecule: N#CC(NNC(=O)Cc1ccccc1)c1ccccc1O (stereo not drawn)
label: no
--
molecule: O=C(CC(C(=O)c1ccsc1)c1cccs1)c1ccccc1 (stereo not drawn)
label: no
--
molecule: COc1cc2c(c(C)c1O)[C@H]1COc3ccccc3[C@H]1O2
label: no
